Test system: ryegrass, Italian (italian ryegrass, Lolium multiflorum)
PROCEDURE_SUMMARY: Test A postemergence application, visual injury rating 0-100
Assay type: in vivo
REPORTED_CONDITIONS: Postemergence, 125 g ai/ha, 10 days; 0 is no effect, 100 is complete control
OBSERVED_PROPERTY: Ryegrass, Italian plant response rating (0 to 100 scale)
Enter the number alone.

Use the examples below as a reference point.
{"COMPOUND": "CC1(C(=O)NC2C=CC(C(=O)NS(=O)(=O)C3CC3)C2)CN(c2cc(Cl)cc(Cl)c2)C(=O)O1 (centres unmarked)", "RECORDED_VALUE": 70}
{"COMPOUND": "CC(C)OC(=O)C1=CCC(NC(=O)C2(C)CN(c3cc(Cl)cc(Cl)c3)C(=O)O2)C1 (centres unmarked)", "RECORDED_VALUE": 70}
{"COMPOUND": "CC1(C(=O)NC2C=CC(C(=O)OCCS(C)(=O)=O)C2)CN(c2cc(Cl)cc(Cl)c2)C(=O)O1 (centres unmarked)", "RECORDED_VALUE": 70}

Task: Kindly indicate its recorded Ryegrass, Italian plant response rating (0 to 100 scale). Item: CCOC(=O)C1C=CC(NC(=O)C2(C)CN(c3cc(F)cc(Cl)c3)C(=O)O2)C1 (centres unmarked)
Output: 90

Task: In one line, give reported Ryegrass, Italian plant response rating (0 to 100 scale) of the entry CC1(C(=O)NC2CCC(C(=O)NS(C)(=O)=O)C2)CN(c2cc(F)cc(F)c2)C(=O)O1 (centres unmarked) .
Output: 70

Task: Fill in Ryegrass, Italian plant response rating (0 to 100 scale) for record CCS(=O)(=O)NC(=O)C1C=CC(NC(=O)C2(C)CN(c3cc(Cl)cc(Cl)c3)C(=O)O2)C1 (centres unmarked)
Output: 70

Task: Identify measured Ryegrass, Italian plant response rating (0 to 100 scale) associated with COC(=O)C1CCC(NC(=O)C2(C)CN(c3cc(F)cc(F)c3)C(=O)O2)C1 (centres unmarked)
Output: 80

Task: Consider the compound CC1(C(=O)NC2C=CC(C(=O)OCc3ccc(F)cc3)C2)CN(c2cc(F)cc(F)c2)C(=O)O1 (centres unmarked) and give its recorded Ryegrass, Italian plant response rating (0 to 100 scale).
Output: 90

Data provenance: patent US20260285850A1
